Test system: CGS 21680-induced catalepsy in mice
experiment: Activity on CGS 21680-induced Catalepsy
Format: in vivo, mouse (male ddY)
experimentalConditions: 10 mg/kg oral, 10 animals, maximum 50 points; control 48
Rule: 1.0 for Total score (catalepsy) not less than 9, 0.0 for anything less.

compoundStructureString: CCOCCCN1CCN(c2cc3nc(-c4ccco4)nn3c(N)n2)CC1
group: 0.0

compoundStructureString: C=CCCN1CCN(c2cc3nc(-c4ccco4)nn3c(N)n2)CC1
group: 1.0

compoundStructureString: Nc1ncc(C(=O)N2CCOCC2)c2nc(-c3ccco3)nn12
group: 1.0

compoundStructureString: COc1cc(CN2CCN(c3cc4nc(-c5ccco5)nn4c(N)n3)CC2)cc(OC)c1
group: 1.0

compoundStructureString: Nc1nc(Oc2ccc(Br)cc2)cc2nc(-c3ccco3)nn12
group: 1.0

compoundStructureString: Nc1nc(N2CCN(CCCc3ccccc3)CC2)cc2nc(-c3ccco3)nn12
group: 0.0

----------
System: CGS 21680-induced catalepsy in mice
experiment: Activity on CGS 21680-induced Catalepsy
Format: in vivo, mouse (male ddY)
experimentalConditions: 10 mg/kg oral, 10 animals, maximum 50 points; control 48
Where a name gives a salt, the structure may show the parent alone.
Binary call on Total score (catalepsy): yes (1) from 10 upward, no (0) beneath that.

molecule: Nc1nc(N2CCN(CCOc3ccccc3)CC2)cc2nc(-c3ccco3)nn12 [Compound 90, hydrochloride]
group: yes (1)
--
molecule: Cc1nc(CN2CCN(c3cc4nc(-c5ccco5)nn4c(N)n3)CC2)cs1
group: no (0)
--
molecule: Nc1nc(N2CCN(Cc3cnns3)CC2)cc2nc(-c3ccco3)nn12
group: no (0)
--
molecule: Nc1ncc(C=O)c2nc(-c3ccco3)nn12
group: no (0)
--
molecule: COC(=O)c1ccc(CSc2cc3nc(-c4ccco4)nn3c(N)n2)cc1
group: yes (1)
--
molecule: COCCN1CCN(c2nc(N)n3nc(-c4ccco4)nc3c2C)CC1
group: yes (1)
--
molecule: COCCOCCN1CCN(c2cc3nc(-c4ccco4)nn3c(N)n2)CC1
group: no (0)

----------
Tested on: CGS 21680-induced catalepsy in mice
experiment: Activity on CGS 21680-induced Catalepsy
Format: in vivo, mouse (male ddY)
experimentalConditions: 10 mg/kg oral; catalepsy score 4 points or less in 10 cases
Counter-ions that a name gives are not always drawn.
propertyLabel: Number of Animals showing remission

molecule: Nc1nc(N2CCN(CCCCF)CC2)cc2nc(-c3ccco3)nn12
targetOfAssay: CGS 21680-induced catalepsy in mice
propertyLabel: Number of Animals showing remission
result: 10
--
molecule: Nc1nc(N2CCN(CC#Cc3ccccc3)CC2)cc2nc(-c3ccco3)nn12 [Compound 89, hydrochloride]
targetOfAssay: CGS 21680-induced catalepsy in mice
propertyLabel: Number of Animals showing remission
result: 10
--
molecule: Nc1nc(N2CCN(Cc3ccsc3)CC2)cc2nc(-c3ccco3)nn12
targetOfAssay: CGS 21680-induced catalepsy in mice
propertyLabel: Number of Animals showing remission
result: 10
--
molecule: Nc1nc(N2CCN(CCCF)CC2)cc2nc(-c3ccco3)nn12
targetOfAssay: CGS 21680-induced catalepsy in mice
propertyLabel: Number of Animals showing remission
result: 10
--
molecule: Nc1nc(SCc2ccccc2Cl)cc2nc(-c3ccco3)nn12
targetOfAssay: CGS 21680-induced catalepsy in mice
propertyLabel: Number of Animals showing remission
result: 9
--
molecule: Nc1nc(N2CCN(Cc3ccccn3)CC2)cc2nc(-c3ccco3)nn12
targetOfAssay: CGS 21680-induced catalepsy in mice
propertyLabel: Number of Animals showing remission
result: 9
--
molecule: C=CCN1CCN(c2cc3nc(-c4ccco4)nn3c(N)n2)CC1
targetOfAssay: CGS 21680-induced catalepsy in mice
propertyLabel: Number of Animals showing remission
result: 9
--
molecule: Nc1ncc(C(=O)N2CCCCC2)c2nc(-c3ccco3)nn12
targetOfAssay: CGS 21680-induced catalepsy in mice
propertyLabel: Number of Animals showing remission
result: 10
--
molecule: COc1cc(CN2CCN(c3cc4nc(-c5ccco5)nn4c(N)n3)CC2)cc(OC)c1OC
targetOfAssay: CGS 21680-induced catalepsy in mice
propertyLabel: Number of Animals showing remission
result: 9
--
molecule: Cc1c(N2CCN(CCO)CC2)nc(N)n2nc(-c3ccco3)nc12
targetOfAssay: CGS 21680-induced catalepsy in mice
propertyLabel: Number of Animals showing remission
result: 10
--
molecule: Cc1ncc(CN2CCN(c3cc4nc(-c5ccco5)nn4c(N)n3)CC2)s1
targetOfAssay: CGS 21680-induced catalepsy in mice
propertyLabel: Number of Animals showing remission
result: 10
--
molecule: Nc1nc(N2CCN(Cc3c(Cl)cccc3Cl)CC2)cc2nc(-c3ccco3)nn12 [Compound 80, hydrochloride]
targetOfAssay: CGS 21680-induced catalepsy in mice
propertyLabel: Number of Animals showing remission
result: 10
--
molecule: CCC(C)N1CCN(c2cc3nc(-c4ccco4)nn3c(N)n2)CC1 (racemic)
targetOfAssay: CGS 21680-induced catalepsy in mice
propertyLabel: Number of Animals showing remission
result: 10
--
molecule: Cc1nc(CN2CCN(c3cc4nc(-c5ccco5)nn4c(N)n3)CC2)cs1
targetOfAssay: CGS 21680-induced catalepsy in mice
propertyLabel: Number of Animals showing remission
result: 10
--
molecule: Nc1nc(SCc2ccncc2)cc2nc(-c3ccco3)nn12
targetOfAssay: CGS 21680-induced catalepsy in mice
propertyLabel: Number of Animals showing remission
result: 8
--
molecule: Nc1nc(N2CCN(CCCc3cccnc3)CC2)cc2nc(-c3ccco3)nn12 [Compound 87, hydrochloride]
targetOfAssay: CGS 21680-induced catalepsy in mice
propertyLabel: Number of Animals showing remission
result: 9
